Test: Acute toxicity (LD50) by oral or intraperitoneal administration to ddY mice (Test Example 6)
Assay type: in vivo
Details: mouse, in vivo, po, 7 days, read-out: LD50 (po)
I'd appreciate it if you marked entries T when LD50 at 168 h is lower than 7000 mg/kg and F when it is not.

Qu. Report whether reported LD50 at 168 h is lower than 7000 mg/kg (strictly) for CCCCCCCCCCCCCCCCCC[C@@H]1OC[C@@H](O)[C@H](O)[C@H]1O [C-n-Stearyl-β-D-xylopyranoside]
Ans. T

Qu. Report whether reported LD50 at 168 h is lower than 7000 mg/kg (strictly) for CCCCCCCCCCCC[C@@H]1OC[C@@H](O)[C@H](O)[C@H]1O [C-n-Lauryl-β-D-xylopyranoside]
Ans. T

Qu. Report whether reported LD50 at 168 h is lower than 7000 mg/kg (strictly) for CC(C)S[C@@H]1OC[C@@H](O)[C@H](O)[C@H]1O [Isopropyl 1-thio-β-D-xylopyranoside]
Ans. T

Qu. Report whether reported LD50 at 168 h is lower than 7000 mg/kg (strictly) for O=C(O)c1ccc(C[C@@H]2OC[C@@H](O)[C@H](O)[C@H]2O)cc1
Ans. F

Qu. Report whether reported LD50 at 168 h is lower than 7000 mg/kg (strictly) for CCCCCCC[C@@H]1OC[C@@H](O)[C@H](O)[C@H]1O [C-n-Heptyl-β-D-xylopyranoside]
Ans. T

Qu. Report whether reported LD50 at 168 h is lower than 7000 mg/kg (strictly) for CCCCCCCCC[C@@H]1OC[C@@H](O)[C@H](O)[C@H]1O [C-n-Nonyl-β-D-xylopyranoside]
Ans. T

###

For each record, write down the corresponding LD50 at 168 h.
Assay: Acute toxicity (LD50) by oral or intraperitoneal administration to ddY mice (Test Example 6)
Type: in vivo
Conditions: mouse, in vivo, po, 7 days, read-out: LD50 (po)
Enter your answer as a number in mg/kg; do not include the unit.

Qu. Retrieve LD50 at 168 h measured for O=C(O)c1ccc(S[C@@H]2OC[C@@H](O)[C@H](O)[C@H]2O)cc1 and print it.
Ans. 7800

Qu. Retrieve LD50 at 168 h measured for CC(C)CCS[C@@H]1OC[C@@H](O)[C@H](O)[C@H]1O [Isoamyl 1-thio-β-D-xylopyranoside] and print it.
Ans. 5800

Qu. Retrieve LD50 at 168 h measured for CCCCCCCCCCCCCCCCS[C@@H]1OC[C@@H](O)[C@H](O)[C@H]1O [n-Cetyl 1-thio-β-D-xylopyranoside] and print it.
Ans. 2280

Qu. Retrieve LD50 at 168 h measured for CCCCCCCCCCCCCCCCCCCC[C@@H]1OC[C@@H](O)[C@H](O)[C@H]1O [C-n-Eicosyl-β-D-xylopyranoside] and print it.
Ans. 2620

###

For each record, write down the corresponding LD50 at 168 h.
Experiment: Acute toxicity (LD50) by oral or intraperitoneal administration to ddY mice (Test Example 6)
Format: in vivo
Conditions: mouse, in vivo, po, 7 days, read-out: LD50 (po)
Enter your answer as a number in mg/kg; do not include the unit.

Qu. Retrieve LD50 at 168 h measured for CCCCCCCCCCCCCCCCCCCCS[C@@H]1OC[C@@H](O)[C@H](O)[C@H]1O [n-Eicosyl 1-thio-β-D-xylopyranoside] and print it.
Ans. 2300

Qu. Retrieve LD50 at 168 h measured for CCCCCCCCCCCCS[C@@H]1OC[C@@H](O)[C@H](O)[C@H]1O [n-Lauryl 1-thio-β-D-xylopyranoside] and print it.
Ans. 2300

Qu. Retrieve LD50 at 168 h measured for O=C(O)c1ccc(O[C@@H]2OC[C@@H](O)[C@H](O)[C@H]2O)cc1 and print it.
Ans. 9800

Qu. Retrieve LD50 at 168 h measured for CCCCCCCCCCS[C@@H]1OC[C@@H](O)[C@H](O)[C@H]1O [n-Decyl 1-thio-β-D-xylopyranoside] and print it.
Ans. 2500

###

Assay: Acute toxicity (LD50) by oral or intraperitoneal administration to ddY mice (Test Example 6)
Format: in vivo
Conditions: mouse, in vivo, ip, intraperitoneal, 7 days, read-out: LD50 (ip)
REPORTED_METRIC: LD50 at 168 h (mg/kg)
Enter your answer as a number in mg/kg; do not include the unit.

Qu. Retrieve LD50 at 168 h measured for CCCCCCCCCCCCCCCCCC[C@@H]1OC[C@@H](O)[C@H](O)[C@H]1O [C-n-Stearyl-β-D-xylopyranoside] and print it.
Ans. 480

Qu. Retrieve LD50 at 168 h measured for CCCCCCCCCCCCS[C@@H]1OC[C@@H](O)[C@H](O)[C@H]1O [n-Lauryl 1-thio-β-D-xylopyranoside] and print it.
Ans. 407

Qu. Retrieve LD50 at 168 h measured for O=C(O)c1ccc(S[C@@H]2OC[C@@H](O)[C@H](O)[C@H]2O)cc1 and print it.
Ans. 2700

Qu. Retrieve LD50 at 168 h measured for CCCCCCCCCCS[C@@H]1OC[C@@H](O)[C@H](O)[C@H]1O [n-Decyl 1-thio-β-D-xylopyranoside] and print it.
Ans. 450

Qu. Retrieve LD50 at 168 h measured for CCCCCCCCCCCCCCCCCCCCS[C@@H]1OC[C@@H](O)[C@H](O)[C@H]1O [n-Eicosyl 1-thio-β-D-xylopyranoside] and print it.
Ans. 400

Qu. Retrieve LD50 at 168 h measured for CC(C)CCS[C@@H]1OC[C@@H](O)[C@H](O)[C@H]1O [Isoamyl 1-thio-β-D-xylopyranoside] and print it.
Ans. 1850

Qu. Retrieve LD50 at 168 h measured for CC(C)S[C@@H]1OC[C@@H](O)[C@H](O)[C@H]1O [Isopropyl 1-thio-β-D-xylopyranoside] and print it.
Ans. 2200

###

Assay: Acute toxicity (LD50) by oral or intraperitoneal administration to ddY mice (Test Example 6)
Type: in vivo
Settings: mouse, in vivo, ip, intraperitoneal, 7 days, read-out: LD50 (ip)
For each record, write down the corresponding LD50 at 168 h.
Enter your answer as a number in mg/kg; do not include the unit.

Qu. Retrieve LD50 at 168 h measured for CCCCCCC[C@@H]1OC[C@@H](O)[C@H](O)[C@H]1O [C-n-Heptyl-β-D-xylopyranoside] and print it.
Ans. 1040

Qu. Retrieve LD50 at 168 h measured for CCCCCCCCCCCC[C@@H]1OC[C@@H](O)[C@H](O)[C@H]1O [C-n-Lauryl-β-D-xylopyranoside] and print it.
Ans. 620

Qu. Retrieve LD50 at 168 h measured for O=C(O)c1ccc(O[C@@H]2OC[C@@H](O)[C@H](O)[C@H]2O)cc1 and print it.
Ans. 3020

Qu. Retrieve LD50 at 168 h measured for CCCCCCCCCCCCCCCCS[C@@H]1OC[C@@H](O)[C@H](O)[C@H]1O [n-Cetyl 1-thio-β-D-xylopyranoside] and print it.
Ans. 425

Qu. Retrieve LD50 at 168 h measured for O[C@@H]1[C@@H](O)[C@H](Cc2ccccc2)OC[C@H]1O [C-Benzyl-1-β-D-xylopyranoside, C-Benzyl-β-D-xylopyranoside] and print it.
Ans. 2400

Qu. Retrieve LD50 at 168 h measured for CCCCCCCCC[C@@H]1OC[C@@H](O)[C@H](O)[C@H]1O [C-n-Nonyl-β-D-xylopyranoside] and print it.
Ans. 920

Qu. Retrieve LD50 at 168 h measured for CCCCCCCCCCCCCCCCCCCC[C@@H]1OC[C@@H](O)[C@H](O)[C@H]1O [C-n-Eicosyl-β-D-xylopyranoside] and print it.
Ans. 430

Qu. Retrieve LD50 at 168 h measured for O=C(O)c1ccc(C[C@@H]2OC[C@@H](O)[C@H](O)[C@H]2O)cc1 and print it.
Ans. 2500
